test.method.notes: qHTS profiling of the MIPE4 collection as inhibitors of Plasmodium falciparum (HB3) proliferation (AID 743347);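 note: plate controls were DMSO vehicle wells for no effect and artemisinin wells for full effect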
condition: P. falciparum HB3 in erythrocytes, SYBR Green DNA, 72 h; at 28.5 µM (top of the series) unless noted
growth, % of control strictly under 70% means label 1; at 70% or over means label 0.

Below are worked cases with known answers.
| compound | classification |
| --- | --- |
| COc1ccc([C@@H]2CNC(=O)C2)cc1OC1CCCC1 | label 0 |
| CC(=O)[C@]1(O)Cc2c(O)c3c(c(O)c2[C@@H](O[C@H]2C[C@H](N)[C@@H](O)[C@H](C)O2)C1)C(=O)c1ccccc1C3=O | label 1 |
| CC(=O)OCC(=O)[C@@]1(O)CC[C@H]2[C@@H]3CCC4=CC(=O)CC[C@]4(C)[C@@H]3C(=O)C[C@@]21C | label 0 |
| CC(C=CC(=O)NO)=C[C@@H](C)C(=O)c1ccc(N(C)C)cc1 | label 1 |

Inquiry: is_below(growth, % of control, 70%) for CON=C(C(=O)N[C@@H]1C(=O)N2C(C(=O)O)=C(CSC(=O)c3ccco3)CS[C@H]12)c1csc(N)n1 ?
Reply text: label 1

Inquiry: is_below(growth, % of control, 70%) for N#Cc1cc(NC(=O)Nc2nnc(-c3ccncc3)s2)ccc1-c1cn[nH]c1 ?
Reply text: label 1

Inquiry: is_below(growth, % of control, 70%) for NC[C@H]1O[C@H](O[C@H]2[C@@H](O)[C@@H](O[C@H]3O[C@H](CO)[C@@H](O)[C@H](N)[C@@H]3O)[C@H](N)C[C@@H]2N)[C@H](N)C[C@H]1O ?
Reply text: label 0
